Target: Large T antigen (Simian virus 40) (UniProt P03070)
Sequence (P03070 whole entry, looked up): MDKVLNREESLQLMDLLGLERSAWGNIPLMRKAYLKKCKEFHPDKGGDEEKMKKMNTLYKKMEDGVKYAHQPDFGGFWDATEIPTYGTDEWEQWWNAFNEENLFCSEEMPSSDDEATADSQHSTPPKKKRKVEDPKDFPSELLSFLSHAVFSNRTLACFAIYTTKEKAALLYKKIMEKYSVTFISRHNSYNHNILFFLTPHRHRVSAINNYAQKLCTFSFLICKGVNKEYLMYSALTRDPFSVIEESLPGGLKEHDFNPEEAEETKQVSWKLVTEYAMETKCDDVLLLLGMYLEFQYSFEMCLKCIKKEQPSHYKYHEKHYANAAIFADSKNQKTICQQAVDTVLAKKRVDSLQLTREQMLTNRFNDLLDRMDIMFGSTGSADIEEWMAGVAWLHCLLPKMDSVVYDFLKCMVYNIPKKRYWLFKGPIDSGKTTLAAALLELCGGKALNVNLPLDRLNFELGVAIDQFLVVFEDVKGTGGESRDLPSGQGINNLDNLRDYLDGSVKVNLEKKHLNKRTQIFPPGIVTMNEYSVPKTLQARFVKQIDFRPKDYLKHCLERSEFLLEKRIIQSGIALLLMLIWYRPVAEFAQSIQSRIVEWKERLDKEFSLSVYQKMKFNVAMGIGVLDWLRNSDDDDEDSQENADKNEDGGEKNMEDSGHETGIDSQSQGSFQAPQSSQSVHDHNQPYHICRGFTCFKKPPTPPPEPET
Assay: SV40 large T antigen inhibitors, biochemical (AID 1903)
Details: SV40 large T antigen ATPase/helicase inhibition assay; at 20 µM; active compounds read high
Out of some 310,000 compounds screened, about 1,200 (0.39%) were called active. These entries were drawn from the full list. Measured potencies and affinities stand elsewhere.
experimental-endpoint: inhibition (%)
Your answer is read as %, so omit the unit and give the number.

Some solved cases for reference:
C/C(=N\Nc1nc(N)cc(Cl)n1)c1ccc(F)cc1: 1.42
COc1ccc(NC(=O)c2ccccc2NC(=O)COc2ccccc2)cc1: 12.1
CN(C)C(=O)COC(=O)c1cc(Cl)cc(Cl)c1N: 7.1
COc1cc2[nH]c(=O)n(CCCCCC(=O)NCCCN3CCOCC3)c(=O)c2cc1OC: 9.95
CN(C[C@H](Cc1ccccc1)N(C[C@H](Cc1ccccc1)N(CCc1cc(C(F)(F)F)cc(C(F)(F)F)c1)N=O)N=O)N=O: 0.235

For Large T antigen (Simian virus 40) (UniProt P03070), provide inhibition of Cn1c(=O)c2c(ncn2CC(O)CNc2ccc(F)cc2)n(C)c1=O (stereo unspecified) please.
5.3

For Large T antigen (Simian virus 40) (UniProt P03070), provide inhibition of COc1ccc(Nc2cc(Nc3ccc(OC)cc3)ncn2)cc1 please.
6.82

For Large T antigen (Simian virus 40) (UniProt P03070), provide inhibition of CCc1ccc(N(C(=O)CNC(=O)c2ccco2)C(C(=O)NC2CCCC2)c2cccnc2)cc1 (stereo unspecified) please.
12.2

For Large T antigen (Simian virus 40) (UniProt P03070), provide inhibition of Cc1ccc(NCC(O)Cn2cnc3c2c(=O)n(C)c(=O)n3C)cc1 (stereo unspecified) please.
16.6

For Large T antigen (Simian virus 40) (UniProt P03070), provide inhibition of Nc1n[nH]c(N)c1N=Nc1ccc(F)cc1 please.
13.8

For Large T antigen (Simian virus 40) (UniProt P03070), provide inhibition of COc1ccc2[nH]c(C(=O)NCCc3ccccc3)cc2c1 please.
6.64

* * *

Some compounds, each annotated with its measured inhibition.
Biological target: Large T antigen (Simian virus 40)
Assay: SV40 large T antigen inhibitors, biochemical (AID 1903)
Settings: SV40 large T antigen ATPase/helicase inhibition assay; at 20 µM; active compounds read high
The campaign covered roughly 310,000 compounds. About 1,200 (0.39%) were called active. A selection follows. Potency and affinity values are given separately.
Your answer is read as %, so omit the unit and give the number.

COC(=O)CC1SC(=O)NC1=Nc1ccc(OC)cc1 (configuration not stated): 3.46
CCCCc1nc(SCC(=O)N2CCCC2)c2c(=O)n(C)c(=O)n(C)c2n1: 8.36
Cc1cccc(C)c1NC(=O)CSCCO: 7.3
Cc1nnc(NC(=O)CCS(=O)(=O)c2ccccc2)s1: 19.4
O=C(OCc1cn(Cc2ccccc2)nn1)c1ccccc1: 7.89

Looking for the measured inhibition of O=C(OCc1nnc(-c2ccccc2)o1)C1CC(=O)N(c2ccccc2)C1 (configuration not stated) , can you help?
4.63

Looking for the measured inhibition of O=C(CCCN1C(=O)/C(=C/c2cccs2)SC1=S)Nc1ccc(O)c(C(=O)O)c1 , can you help?
29.5

Looking for the measured inhibition of Cc1ccc(O)c(Nc2c3ccccc3nc3ccccc23)c1 , can you help?
12.6

Looking for the measured inhibition of Cc1cccc(C)c1NC(=O)CSCC(=O)O , can you help?
11.2

Looking for the measured inhibition of CC(C)NC(=O)c1nn2c(C(F)(F)F)cc(-c3ccco3)nc2c1Cl , can you help?
10.7

Looking for the measured inhibition of Cc1cc(C)c(C(=O)COc2cccnc2[N+](=O)[O-])cc1C , can you help?
-4.61

Looking for the measured inhibition of O=C(CC12CC3CC(CC(C3)C1)C2)Nc1nncs1 , can you help?
12.5

* * *

Molecular target: Large T antigen (Simian virus 40) (UniProt P03070)
Assay: SV40 large T antigen inhibitors, biochemical (AID 1903)
Details: SV40 large T antigen ATPase/helicase inhibition assay; at 20 µM; active compounds read high
Out of some 310,000 compounds screened, about 1,200 (0.39%) were called active. These entries were drawn from the full list. Entries with a potency or affinity are not part of this list.
Some compounds, each annotated with its measured inhibition.
Your answer is read as %, so omit the unit and give the number.

Looking for the measured inhibition of O=C1NC(=O)/C(=C\c2ccc(Cl)nc2)S1 , can you help?
8.29

Looking for the measured inhibition of CC(C)CCN(CCC(C)C)CC(O)Cn1c2ccccc2c(=O)c2ccccc21 (stereo unspecified) , can you help?
8.16

Looking for the measured inhibition of COc1ccc(/C=C2\SC(=O)N=C2N)cc1OC , can you help?
8.84

* * *

Target: Large T antigen (Simian virus 40)
Test: SV40 large T antigen inhibitors, biochemical (AID 1903)
Details: SV40 large T antigen ATPase/helicase inhibition assay; at 20 µM; active compounds read high
Screen size: about 310,000 compounds; about 1,200 (0.39%) were called active. Only a sample is shown. Results with a measured potency or affinity are listed apart.
experimental-endpoint: inhibition (%)
Your answer is read as %, so omit the unit and give the number.

O=C(Nc1nncs1)Oc1ccccc1: 14.9
CC1=C(C#N)C(=O)NC(=O)/C1=C\c1ccc(-c2ccc(C)cc2[N+](=O)[O-])o1: 33.3
CCn1c(SCC(=O)C(C)(C)C)nnc1-c1ccccc1OC: -1.72
CCCn1c(SCc2nc(N)nc(N3CCCCC3)n2)nc2c1c(=O)n(C)c(=O)n2C: 27.3
Fc1ccccc1/C=N/n1c(COc2ccccc2)n[nH]c1=S: 6
Cc1cc(C)nc(SCSc2nc(C)cc(C)n2)n1: 1.38
C=CCn1c(SCC(=O)Nc2ccc(C(=O)O)cc2)nnc1-c1cccnc1: 8.53
CCOC(=O)n1c(=O)n(C)c2ccc(Br)cc21: 4.58
CC(CN1CCCCC1)OC(=O)c1ccc(Cl)cc1 (stereo not drawn): -0.49
Cc1cc(C)c(S(=O)(=O)NCCn2c(C)cc3ccccc32)c(C)c1: 3.6

Looking for the measured inhibition of CC1(C)CC(=O)N(CC(=O)N2CCN(c3ncccn3)CC2)c2ccccc2S1(=O)=O , can you help?
-1.17

Looking for the measured inhibition of NS(=O)(=O)c1ccc(-c2ccc(/C=C3\C(=O)Nc4cc(Cl)ccc43)o2)cc1 , can you help?
-8.34

Looking for the measured inhibition of CC1=C(C#N)C(=O)NC(=O)/C1=C\c1ccc(-c2cc(C)c(C)cc2[N+](=O)[O-])o1 , can you help?
17.5

Looking for the measured inhibition of C=CCn1c(SCC(=O)Nc2ccc3c(c2)OCO3)nnc1-c1ccccc1OC , can you help?
1.62

* * *

Target: Large T antigen (Simian virus 40)
Test: SV40 large T antigen inhibitors, biochemical (AID 1903)
Conditions: SV40 large T antigen ATPase/helicase inhibition assay; at 20 µM; active compounds read high
In all, about 310,000 compounds went through this assay and about 1,200 (0.39%) were called active. Only a sample is shown. Results with a measured potency or affinity are listed apart.
Some molecules, each annotated with its measured inhibition.
Your answer is read as %, so omit the unit and give the number.

Some solved cases for reference:
Brc1cccc(Cn2c(-c3cncs3)nc3ccccc32)c1: 12
COc1ccc(-c2cc(=O)c3cc(OC)c(OC)cc3[nH]2)cc1: 3.81
COc1ccc(OC)c(C2CC(=O)N3CN(c4cccc(Cl)c4C)CSC3=C2C#N)c1 (stereo not given): 45.4
CCN(CC)C(=O)C1CCC(CNS(=O)(=O)c2cccc3nsnc23)CC1 (stereo not given): 5.44
O=C(c1ccco1)N1CCC(c2nc3c(nnn3Cc3ccc(F)cc3)c(=O)[nH]2)CC1: 12.3

Looking for the measured inhibition of CCOC(=O)c1oc2cc(O)c(CC)cc2c(=O)c1-c1cscn1 , can you help?
7.73

Looking for the measured inhibition of COc1cccc(C(=O)Nc2cc(OC)ccc2NC(=O)c2ccco2)c1 , can you help?
17.6

Looking for the measured inhibition of COc1ccc(N2CSC3=C(C#N)C(c4cc(OC)c(OC)cc4OC)CC(=O)N3C2)c(OC)c1 (stereo not given) , can you help?
61.9

Looking for the measured inhibition of CCCc1cc(-c2[nH]ncc2-c2ccc(C(=O)OCC)o2)c(O)cc1O , can you help?
18.2

Looking for the measured inhibition of COc1ccc(OC)c(NC(=O)CSc2ccc(-c3ccco3)nn2)c1 , can you help?
11.7

* * *

Target: Large T antigen (Simian virus 40) (UniProt P03070)
Assay: SV40 large T antigen inhibitors, biochemical (AID 1903)
Details: SV40 large T antigen ATPase/helicase inhibition assay; at 20 µM; active compounds read high
The whole screen tested about 310,000 compounds, of which about 1,200 (0.39%) were called active. The list is a sample of the results. Potency and affinity values are given separately.
Label scheme for inhibition: lo = under 5%, mid = from 5% up to 20%, hi = 20% and over

Worked cases, answers included:
Cc1ccc(-n2cccc2/C=C2/NC(=O)N(CC(=O)Nc3cccc(C)c3)C2=O)cc1: mid
CN1CCc2cccc3c2[C@@H]1Cc1ccc(O)c(O)c1-3: hi
O=C(C1CC1)N1CCN(C(c2ccccc2)c2ccccc2)CC1: hi

Tag the class for CC(C(=O)NC1CCCCC1)N1C(=O)C2C3C=CC(C3)C2C1=O (stereo unspecified)
lo

Tag the class for COc1cccc(C(=O)NCC(=O)N2CCC3(CC2)NCCc2[nH]cnc23)c1OC
hi

Tag the class for CN1CCC(=C2c3ccccc3C(O)c3ccccc32)CC1 (stereo unspecified)
mid

Tag the class for CSc1nc2ccc(S(=O)(=O)N3CCCCC3)cc2s1
lo

Tag the class for Cc1nc(CCNC(=O)CC2C(=O)NCCN2CC(C)(C)C)nc2c1CCC2 (stereo unspecified)
mid

Tag the class for CCc1ccc(CN2CCC(n3nccc3NC(=O)Cc3ccccc3)CC2)o1
mid

Tag the class for CC(C)CN1C(=O)c2ccc(C(=O)Nc3ccccn3)cc2C1=O
lo

Tag the class for COC(=O)C1=C(O)/C(=C\c2cc(C)n(-c3ccccc3C)c2C)N=C1C
hi
